Readout Kind: melting point

[
  {
    "Compound": "Cc1c(-c2ccccc2)[nH]n(C(=O)c2snc(Cl)c2Cl)c1=O",
    "Result": "190 to 191 °C"
  },
  {
    "Compound": "N#CC(=CNNC(=O)c1snc(Cl)c1Cl)c1ccccc1",
    "Result": "212 to 214 °C"
  },
  {
    "Compound": "Cn1nnnc1SCN(CNC(=O)c1snc(Cl)c1Cl)C(=O)c1snc(Cl)c1Cl [compound 154]",
    "Result": "185 to 188 °C"
  },
  {
    "Compound": "O=C(NCC(O)CO)c1snc(Cl)c1Cl (stereo not drawn)",
    "Result": "68 to 72 °C"
  },
  {
    "Compound": "CC1(C)OCC(CNC(=O)c2snc(Cl)c2Cl)O1 (stereo not drawn)",
    "Result": "132 to 133 °C"
  },
  {
    "Compound": "CCCC(NC(C)=O)NC(=O)c1snc(Cl)c1Cl (stereo not drawn) [compound 112]",
    "Result": "162 to 165 °C"
  },
  {
    "Compound": "O=C(NCS(=O)(=O)c1ccccc1)c1snc(Cl)c1Cl [compound 71]",
    "Result": "175 to 176 °C"
  },
  {
    "Compound": "Cc1cc(C)n(COC(=O)c2snc(Cl)c2Cl)n1 [compound 98]",
    "Result": "80 to 81 °C"
  },
  {
    "Compound": "O=C(S)c1snc(Cl)c1Cl",
    "Result": "79 to 80 °C"
  },
  {
    "Compound": "CCOC(NC(=O)c1snc(Cl)c1Cl)C(F)(F)F (stereo not drawn) [compound 49]",
    "Result": "99 to 101 °C"
  }
]

Request: Look up and report measured melting point for this entry: O=C(NC(Sc1nnc(-c2ccccc2)s1)C(F)(F)F)c1snc(Cl)c1Cl (stereo not drawn)
Response: 124 to 127 °C

Request: Dear colleague, please send me the reported melting point for Cn1nnnc1SCNC(=O)c1snc(Cl)c1Cl [compound 76] when you can.
Response: 176 to 177 °C

Request: Answer with the recorded melting point of O=C(Nc1ccc(C(F)(F)F)cc1)OCNC(=O)c1snc(Cl)c1Cl [compound 58] only.
Response: 117 to 119 °C

Request: Please list melting point recorded for the compound COCNC(=O)c1snc(Cl)c1Cl
Response: 79 to 87 °C

Request: Please report the measured melting point for O=CN(CNC(=O)c1snc(Cl)c1Cl)Cc1ccccc1
Response: 102 to 103 °C

* * *

- Test system: Pyricularia oryzae
- Assay Protocol: whole plant or invertebrate
- Assay type: in vivo
- Applied Conditions: foliar, 168 h, read-out: control value
Readout Kind: pest or weed control at 500 ppm

Here are 2 compounds together with their reported answers.
[
  {
    "Compound": "O=C(NC(O)C(F)(F)F)c1snc(Cl)c1Cl (stereo not drawn) [compound 48]",
    "pest or weed control at 500 ppm": "> 80%"
  },
  {
    "Compound": "Cn1nnnc1SCNC(=O)c1snc(Cl)c1Cl [compound 76]",
    "pest or weed control at 500 ppm": "> 80%"
  }
]

Now look at this one.
Request: Lab note: record pest or weed control at 500 ppm of O=C(NCO)c1snc(Cl)c1Cl [compound 45] tested on Pyricularia oryzae.
Response: > 80%
